test system: 966289-007-R4-J1-PDC complex spheroid viability; assay: Anticancer human tumor 966289-007-R4-J1-PDC patient-derived pancreatic adenocarcinoma cell line growth inhibition [GQUAD]; settings: second compound 0.1 µM; first compound 0.1 µM; stronger effect = lower value;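 note: spheroids exposed to the agents for seven days before readout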
Entries whose viability, T/C is below 20% take fulfilled; entries at or above 20% take not fulfilled.

{"COMPOUND": "C#Cc1c(F)ccc2cc(O)cc(-c3ncc4c(N5CC6CCC(C5)N6)nc(OCC56CCCN5CC(F)C6)nc4c3F)c12 (stereo unspecified) + CN(C)c1ccc(Nc2c3ccc(NC(=O)CCN4CCCC4)cc3nc3cc(NC(=O)CCN4CCCC4)ccc23)cc1", "LABEL_VALUE": "not fulfilled"}
{"COMPOUND": "COc1ncnc(C2CC2)c1-c1ncc2cnn(Cc3ccc(-c4nc(C(F)(F)F)cn4C(C)C)cc3)c2n1 + Cc1[nH]c2ccc(F)cc2c1-c1nc2c3cccnc3c3ncccc3c2[nH]1", "LABEL_VALUE": "not fulfilled"}
{"COMPOUND": "Nc1ccn(C2OC(CO)C(O)C2(F)F)c(=O)n1 (stereo unspecified) + Cc1cnc(CNC(=O)c2c(=O)c3ccc(N4CCCN(C)CC4)nc3n3c2sc2ccccc23)cn1", "LABEL_VALUE": "fulfilled"}
{"COMPOUND": "C=CCn1c(=O)c2cnc(Nc3ccc(N4CCN(C)CC4)cc3)nc2n1-c1cccc(C(C)(C)O)n1 + Cc1cnc(CNC(=O)c2c(=O)c3ccc(N4CCCN(C)CC4)nc3n3c2sc2ccccc23)cn1", "LABEL_VALUE": "fulfilled"}
{"COMPOUND": "COc1cccc2c1C(=O)c1c(O)c3c(c(O)c1C2=O)CC(O)(C(=O)CO)CC3OC1CC(N)C(O)C(C)O1 (stereo unspecified) + Cc1cnc(CNC(=O)c2c(=O)c3ccc(N4CCCN(C)CC4)nc3n3c2sc2ccccc23)cn1", "LABEL_VALUE": "fulfilled"}
{"COMPOUND": "Cc1cccc(N(C)C(=O)C2C(O)CCN2c2nc(C)cc(C(F)(F)F)c2C#N)c1 (stereo unspecified) + CN(C)c1ccc(Nc2c3ccc(NC(=O)CCN4CCCC4)cc3nc3cc(NC(=O)CCN4CCCC4)ccc23)cc1", "LABEL_VALUE": "not fulfilled"}
{"COMPOUND": "COc1cccc2c1C(=O)c1c(O)c3c(c(O)c1C2=O)CC(O)(C(=O)CO)CC3OC1CC(N)C(O)C(C)O1 (stereo unspecified) + Cc1[nH]c2ccc(F)cc2c1-c1nc2c3cccnc3c3ncccc3c2[nH]1", "LABEL_VALUE": "fulfilled"}
{"COMPOUND": "CC1COCCN1c1cc(C2(S(C)(=N)=O)CC2)nc(-c2ccnc3[nH]ccc23)n1 (stereo unspecified) + Cc1cnc(CNC(=O)c2c(=O)c3ccc(N4CCCN(C)CC4)nc3n3c2sc2ccccc23)cn1", "LABEL_VALUE": "not fulfilled"}
{"COMPOUND": "O=c1[nH]cc(F)c(=O)[nH]1 + Cc1cnc(CNC(=O)c2c(=O)c3ccc(N4CCCN(C)CC4)nc3n3c2sc2ccccc23)cn1", "LABEL_VALUE": "not fulfilled"}
{"COMPOUND": "CC1COCCN1c1cc(C2(S(C)(=N)=O)CC2)nc(-c2ccnc3[nH]ccc23)n1 (stereo unspecified) + Cc1[nH]c2ccc(F)cc2c1-c1nc2c3cccnc3c3ncccc3c2[nH]1", "LABEL_VALUE": "not fulfilled"}
